Molecular target: P-gp (Homo sapiens, UniProt P08183)
Sequence (P08183 whole entry): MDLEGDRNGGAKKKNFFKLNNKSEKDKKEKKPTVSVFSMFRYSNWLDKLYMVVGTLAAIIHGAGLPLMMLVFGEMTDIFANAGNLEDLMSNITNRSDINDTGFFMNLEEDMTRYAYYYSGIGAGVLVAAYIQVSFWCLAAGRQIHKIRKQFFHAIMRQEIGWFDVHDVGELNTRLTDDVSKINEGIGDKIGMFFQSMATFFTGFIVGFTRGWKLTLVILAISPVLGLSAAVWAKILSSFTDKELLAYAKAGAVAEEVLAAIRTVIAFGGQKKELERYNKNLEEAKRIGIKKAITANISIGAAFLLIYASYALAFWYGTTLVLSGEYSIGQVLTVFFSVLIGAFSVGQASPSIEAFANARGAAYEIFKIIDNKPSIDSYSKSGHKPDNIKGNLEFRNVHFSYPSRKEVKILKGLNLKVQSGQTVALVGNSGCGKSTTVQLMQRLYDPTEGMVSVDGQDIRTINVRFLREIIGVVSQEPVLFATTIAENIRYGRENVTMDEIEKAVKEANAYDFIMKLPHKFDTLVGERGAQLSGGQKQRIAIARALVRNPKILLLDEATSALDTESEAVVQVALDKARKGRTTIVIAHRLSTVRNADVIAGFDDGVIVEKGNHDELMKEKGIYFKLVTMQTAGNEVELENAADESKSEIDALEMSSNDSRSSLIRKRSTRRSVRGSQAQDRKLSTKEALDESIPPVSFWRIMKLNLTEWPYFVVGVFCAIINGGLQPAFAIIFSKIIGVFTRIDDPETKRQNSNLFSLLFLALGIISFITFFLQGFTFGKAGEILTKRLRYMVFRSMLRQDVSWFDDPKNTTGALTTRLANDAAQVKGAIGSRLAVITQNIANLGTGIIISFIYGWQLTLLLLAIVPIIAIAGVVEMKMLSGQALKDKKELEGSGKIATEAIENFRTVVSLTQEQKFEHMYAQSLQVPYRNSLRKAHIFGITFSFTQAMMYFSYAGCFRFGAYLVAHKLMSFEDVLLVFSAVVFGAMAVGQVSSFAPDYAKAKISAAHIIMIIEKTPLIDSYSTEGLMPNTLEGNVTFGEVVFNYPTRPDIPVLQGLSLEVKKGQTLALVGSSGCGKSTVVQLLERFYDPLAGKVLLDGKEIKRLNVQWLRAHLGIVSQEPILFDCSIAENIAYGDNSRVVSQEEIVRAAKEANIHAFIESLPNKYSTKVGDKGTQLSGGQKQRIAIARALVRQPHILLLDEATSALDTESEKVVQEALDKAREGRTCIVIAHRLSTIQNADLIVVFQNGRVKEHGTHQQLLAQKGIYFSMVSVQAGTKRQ
Experiment: Rhodamine 123 intracellular accumulation assay in K562/Dox (flow cytometry)
Settings: Rho123, K562/Dox, 0.78 µM
# maps each entry to its FAR (fluorescence activity ratio)
Measured property: FAR (fluorescence activity ratio)

Compound	Test system	Measured property	Test value
C=C(C)[C@@H]1CC[C@]2(COC(=O)NCCc3ccc(OC)c(OC)c3)CC[C@]3(C)[C@H](CC[C@@H]4[C@@]5(C)CC[C@H](O)C(C)(C)[C@@H]5CC[C@]43C)[C@@H]12 [Compound 6f]	P-gp (Homo sapiens, UniProt P08183)	FAR (fluorescence activity ratio)	1.02 ± 0.02
C=C(C)[C@@H]1CC[C@]2(CO)CC[C@]3(C)[C@H](CC[C@@H]4[C@@]5(C)CC[C@H](O)C(C)(C)[C@@H]5CC[C@]43C)[C@@H]12 [Compound 1, betulin]	P-gp (Homo sapiens, UniProt P08183)	FAR (fluorescence activity ratio)	1.01 ± 0.07
C=C(C)[C@@H]1CC[C@]2(COC(=O)N3CCN(C)CC3)CC[C@]3(C)[C@H](CC[C@@H]4[C@@]5(C)CC[C@H](O)C(C)(C)[C@@H]5CC[C@]43C)[C@@H]12 [Compound 6i]	P-gp (Homo sapiens, UniProt P08183)	FAR (fluorescence activity ratio)	1.30 ± 0.06
C=C(C)[C@@H]1CC[C@]2(COC(=O)NCCc3cc(OC)c(OC)c(OC)c3)CC[C@]3(C)[C@H](CC[C@@H]4[C@@]5(C)CC[C@H](O)C(C)(C)[C@@H]5CC[C@]43C)[C@@H]12 [Compound 6g]	P-gp (Homo sapiens, UniProt P08183)	FAR (fluorescence activity ratio)	1.33 ± 0.14
COc1cc2c(cc1OC)CN(CCc1ccc(NC(=O)c3cc(OC)c(OC)cc3NC(=O)c3cnc4ccccc4c3)cc1)CC2 [Tariquidar, tariquidar, reference compound]	P-gp (Homo sapiens, UniProt P08183)	FAR (fluorescence activity ratio)	1.12 ± 0.03
C=C(C)[C@@H]1CC[C@]2(COC(=O)Nc3cc(OC)c(OC)c(OC)c3)CC[C@]3(C)[C@H](CC[C@@H]4[C@@]5(C)CC[C@H](O)C(C)(C)[C@@H]5CC[C@]43C)[C@@H]12 [Compound 6a]	P-gp (Homo sapiens, UniProt P08183)	FAR (fluorescence activity ratio)	0.98 ± 0.02
C=C(C)[C@@H]1CC[C@]2(COC(=O)NCc3cc(OC)c(OC)c(OC)c3)CC[C@]3(C)[C@H](CC[C@@H]4[C@@]5(C)CC[C@H](O)C(C)(C)[C@@H]5CC[C@]43C)[C@@H]12 [Compound 6d]	P-gp (Homo sapiens, UniProt P08183)	FAR (fluorescence activity ratio)	1.16 ± 0.03
C=C(C)[C@@H]1CC[C@]2(COC(=O)NCCN3CCNCC3)CC[C@]3(C)[C@H](CC[C@@H]4[C@@]5(C)CC[C@H](O)C(C)(C)[C@@H]5CC[C@]43C)[C@@H]12 [Compound 6k]	P-gp (Homo sapiens, UniProt P08183)	FAR (fluorescence activity ratio)	1.03 ± 0.17

====

Listed molecules paired with reported IC50
System: K562/Dox cells
Assay: MTT colorimetric assay, cytotoxicity on resistant K562/Dox
Assay type: cell-based
Conditions: Homo sapiens, K562, 48 h, MTT, 48 h, K562/Dox; read-out: IC50 K562/Dox

Molecule	Unit abbrev	Reading qualifier	IC50
C=C(C)[C@@H]1CC[C@]2(COC(=O)NCc3ccc(OC)cc3)CC[C@]3(C)[C@H](CC[C@@H]4[C@@]5(C)CC[C@H](O)C(C)(C)[C@@H]5CC[C@]43C)[C@@H]12	µM	>	50
C=C(C)[C@@H]1CC[C@]2(COC(=O)/C=C/c3ccc(OC)cc3OC)CC[C@]3(C)[C@H](CC[C@@H]4[C@@]5(C)CC[C@H](O)C(C)(C)[C@@H]5CC[C@]43C)[C@@H]12	µM	>	50
C=C(C)[C@@H]1CC[C@]2(COC(=O)c3cc(OC)c(OC)c(OC)c3)CC[C@]3(C)[C@H](CC[C@@H]4[C@@]5(C)CC[C@H](O)C(C)(C)[C@@H]5CC[C@]43C)[C@@H]12	µM	>	50
COc1cc2c(cc1OC)CN(CCc1ccc(NC(=O)c3cc(OC)c(OC)cc3NC(=O)c3cnc4ccccc4c3)cc1)CC2 [Tariquidar, tariquidar, reference compound]	µM	=	2.2
C=C(C)[C@@H]1CC[C@]2(COC(=O)NCCN3CCNCC3)CC[C@]3(C)[C@H](CC[C@@H]4[C@@]5(C)CC[C@H](O)C(C)(C)[C@@H]5CC[C@]43C)[C@@H]12	µM	=	27

====

Experiment: Cytotoxicity on peripheral blood mononuclear cells (MTT)
Type: cell-based, human
Conditions: human
Measured property: IC50 at 48 h (µM)

> print(dat)
                              line.notation  test.value
1  C=C(C)[C@@H]1CC[C@]2(COC(=O)N3CCN(C)CC3)CC[C@]3(C)[C@H](CC[C@@H]4[C@@]5(C)CC[C@H](O)C(C)(C)[C@@H]5CC[C@]43C)[C@@H]12        26.4

====

Target: P-gp (Homo sapiens)
Experiment: Rhodamine 123 intracellular accumulation assay in K562/Dox (flow cytometry)
Conditions: Rho123, K562/Dox, 1.56 µM

Line notation	FAR (fluorescence activity ratio)
C=C(C)[C@@H]1CC[C@]2(COC(=O)NCc3ccc(OC)c(OC)c3)CC[C@]3(C)[C@H](CC[C@@H]4[C@@]5(C)CC[C@H](O)C(C)(C)[C@@H]5CC[C@]43C)[C@@H]12	1.00
C=C(C)[C@@H]1CC[C@]2(CO)CC[C@]3(C)[C@H](CC[C@@H]4[C@@]5(C)CC[C@H](O)C(C)(C)[C@@H]5CC[C@]43C)[C@@H]12	1.12
C=C(C)[C@@H]1CC[C@]2(COC(=O)N3CCc4cc(OC)c(OC)cc4C3)CC[C@]3(C)[C@H](CC[C@@H]4[C@@]5(C)CC[C@H](O)C(C)(C)[C@@H]5CC[C@]43C)[C@@H]12	1.03

====

Biological target: P-gp (Homo sapiens, UniProt P08183)
Assay: Rhodamine 123 intracellular accumulation assay in K562/Dox (flow cytometry)
Details: Rho123 accumulation, K562/Dox

Line notation	Reading qualifier	MEC (minimum effective concentration) [µM]
C=C(C)[C@@H]1CC[C@]2(COC(=O)NCc3ccc(OC)cc3)CC[C@]3(C)[C@H](CC[C@@H]4[C@@]5(C)CC[C@H](O)C(C)(C)[C@@H]5CC[C@]43C)[C@@H]12	=	50
C=C(C)[C@@H]1CC[C@]2(COC(=O)c3ccc(OC)cc3)CC[C@]3(C)[C@H](CC[C@@H]4[C@@]5(C)CC[C@H](O)C(C)(C)[C@@H]5CC[C@]43C)[C@@H]12	>	50
C=C(C)[C@@H]1CC[C@]2(COC(=O)N3CCc4cc(OC)c(OC)cc4C3)CC[C@]3(C)[C@H](CC[C@@H]4[C@@]5(C)CC[C@H](O)C(C)(C)[C@@H]5CC[C@]43C)[C@@H]12	=	3.12
C=C(C)[C@@H]1CC[C@]2(COC(=O)NCc3cc(OC)c(OC)c(OC)c3)CC[C@]3(C)[C@H](CC[C@@H]4[C@@]5(C)CC[C@H](O)C(C)(C)[C@@H]5CC[C@]43C)[C@@H]12	=	0.78
C=C(C)[C@@H]1CC[C@]2(COC(=O)NCc3ccc(OC)c(OC)c3)CC[C@]3(C)[C@H](CC[C@@H]4[C@@]5(C)CC[C@H](O)C(C)(C)[C@@H]5CC[C@]43C)[C@@H]12	=	3.12

====

Biological target: P-gp (Homo sapiens, UniProt P08183)
Test: Rhodamine 123 intracellular accumulation assay in K562/Dox (flow cytometry)
Conditions: Rho123, K562/Dox, 6.25 µM
Consider the following molecules and their measured FAR (fluorescence activity ratio) readings.
Measured property: FAR (fluorescence activity ratio)

Molecule	Test value
C=C(C)[C@@H]1CC[C@]2(COC(=O)NCc3cc(OC)c(OC)c(OC)c3)CC[C@]3(C)[C@H](CC[C@@H]4[C@@]5(C)CC[C@H](O)C(C)(C)[C@@H]5CC[C@]43C)[C@@H]12 [Compound 6d]	1.88
C=C(C)[C@@H]1CC[C@]2(COC(=O)N3CCNCC3)CC[C@]3(C)[C@H](CC[C@@H]4[C@@]5(C)CC[C@H](O)C(C)(C)[C@@H]5CC[C@]43C)[C@@H]12 [Compound 6h]	1.06
C=C(C)[C@@H]1CC[C@]2(COC(=O)NCc3ccc(N4CCN(C)CC4)cc3)CC[C@]3(C)[C@H](CC[C@@H]4[C@@]5(C)CC[C@H](O)C(C)(C)[C@@H]5CC[C@]43C)[C@@H]12 [Compound 6l]	1.30
C=C(C)[C@@H]1CC[C@]2(COC(=O)NCCc3cc(OC)c(OC)c(OC)c3)CC[C@]3(C)[C@H](CC[C@@H]4[C@@]5(C)CC[C@H](O)C(C)(C)[C@@H]5CC[C@]43C)[C@@H]12 [Compound 6g]	2.62
C=C(C)[C@@H]1CC[C@]2(COC(=O)Nc3cc(OC)c(OC)c(OC)c3)CC[C@]3(C)[C@H](CC[C@@H]4[C@@]5(C)CC[C@H](O)C(C)(C)[C@@H]5CC[C@]43C)[C@@H]12 [Compound 6a]	1.12
